Reported IC50 values for the following molecules.
molecular target: human platelet PLA2 (Homo sapiens); construct: The PLA2 enriched supernatant fluid is removed and the amount of protein is determined by the Lowry method; from tissue; host or cells: expired human platelets from the blood bank (acid extract, not purified); experiment: Inhibition of cell free human platelet PLA2 (hydrolysis of [3H]-AA labelled E. coli phospholipids); assay type: biochemical; conditions: cell free human platelet PLA2, pH 7.4, 37° C., 30 min; read-out: IC50 (PLA2)
Sequence (P14555 21-144): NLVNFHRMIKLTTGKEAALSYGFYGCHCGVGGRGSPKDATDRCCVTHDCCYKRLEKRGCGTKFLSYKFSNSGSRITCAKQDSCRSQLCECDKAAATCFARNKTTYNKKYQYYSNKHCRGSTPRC
metric-name: IC50

| molecule | endpoint-result |
| --- | --- |
| CCOC(=O)C1(CCCCCc2ccc(Cl)cc2)CO1 (stereo not drawn) [Example 10] | 1.6 µM |
| COC(=O)C1(C(F)CCCCOc2ccc(Cl)cc2)CO1 (single isomer, unassigned) [2 (isomer A)] | 13.8 µM |
| COC(=O)C1(C(F)=CCCCOc2ccc(Cl)cc2)CO1 (stereo not drawn) [6 (fluoro-vinyl compound)] | 3 µM |
